# assay system: EPHB2 (UniProt P29323)
# Sequence (P29323 whole entry, looked up): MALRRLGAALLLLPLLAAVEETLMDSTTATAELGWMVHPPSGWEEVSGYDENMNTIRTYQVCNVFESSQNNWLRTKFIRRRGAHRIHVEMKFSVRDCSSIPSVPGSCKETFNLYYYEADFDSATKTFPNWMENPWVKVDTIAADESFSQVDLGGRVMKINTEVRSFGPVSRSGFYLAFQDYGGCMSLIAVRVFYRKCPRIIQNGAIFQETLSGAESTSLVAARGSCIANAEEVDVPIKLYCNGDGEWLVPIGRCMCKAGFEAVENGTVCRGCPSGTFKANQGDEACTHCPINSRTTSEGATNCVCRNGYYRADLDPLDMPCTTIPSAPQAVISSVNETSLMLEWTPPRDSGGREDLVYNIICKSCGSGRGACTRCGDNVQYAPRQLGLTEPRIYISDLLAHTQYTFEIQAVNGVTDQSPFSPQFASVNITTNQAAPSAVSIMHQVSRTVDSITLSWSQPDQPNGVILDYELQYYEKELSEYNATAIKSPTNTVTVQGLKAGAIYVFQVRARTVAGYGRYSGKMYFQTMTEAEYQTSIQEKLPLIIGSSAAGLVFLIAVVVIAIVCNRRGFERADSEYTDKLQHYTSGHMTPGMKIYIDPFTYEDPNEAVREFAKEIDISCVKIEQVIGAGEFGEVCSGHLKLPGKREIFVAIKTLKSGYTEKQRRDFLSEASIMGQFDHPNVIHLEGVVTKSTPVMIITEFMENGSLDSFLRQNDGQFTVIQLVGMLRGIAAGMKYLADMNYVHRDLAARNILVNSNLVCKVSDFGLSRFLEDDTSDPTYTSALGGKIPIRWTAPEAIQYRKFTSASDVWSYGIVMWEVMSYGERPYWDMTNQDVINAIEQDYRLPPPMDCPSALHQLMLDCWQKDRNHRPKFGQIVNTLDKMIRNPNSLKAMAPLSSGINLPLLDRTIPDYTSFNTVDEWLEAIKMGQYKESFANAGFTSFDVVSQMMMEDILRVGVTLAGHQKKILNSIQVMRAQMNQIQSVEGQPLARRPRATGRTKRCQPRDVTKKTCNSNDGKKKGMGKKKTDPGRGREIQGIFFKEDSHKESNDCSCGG
# protocol summary: phosphorylation enrichment, bacterial display (enrichment ratio); higher = better substrate or ligand; peptides without Tyr show the background;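 further: 11-residue human phosphosite peptides and single-mutation variants displayed on the E. coli surface, counted by deep sequencing, each peptide's frequency after selection divided by its frequency in the unselected input library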;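 further: frequency after pTyr selection over input frequency; kinase dosed for 20-30% of maximal phosphorylation in three min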
reported endpoint: phosphorylation enrichment
One number for each entry.

item sequence: FPPDGYSRHFE [CTNND1_Y213_YF]
phosphorylation enrichment: 0.373

item sequence: RIFDFYSARKT [STOX1_Y858_A863T_YF]
phosphorylation enrichment: 0.553

item sequence: KKHIPYREHKS [CSNK1G1_Y205]
phosphorylation enrichment: 1.25

item sequence: KVASVYEAPGF [NT5C_Y65]
phosphorylation enrichment: 5.62

item sequence: QTPVLYAMLYH [MPZ_Y220_D224Y]
phosphorylation enrichment: 6.54

item sequence: FRNSLYAPDYS [FAM92A_Y226]
phosphorylation enrichment: 0.775

item sequence: SSNLFYRWLTA [CNGA3_Y169_YF]
phosphorylation enrichment: 0.526

item sequence: FEEVVYQAMEE [TACC3_Y684]
phosphorylation enrichment: 0.737

List the reported phosphorylation enrichment of each sequence below.
1. QRIHDYFEHRF [HCN4_Y554_YF]
2. DTVRIYDDDFF [UBA1_Y560_E557V]
3. LARDMYDKEFF [MET_Y1230_YF]
4. PIAPVYAPSMV [ACAT1_Y331_A333P]

[reply]
[0.843, 0.626, 0.564, 2.72]

List the reported phosphorylation enrichment of each sequence below.
1. EWLRRYLENGK [HLA-A_Y195]
2. HNELYYEEAEH [VANGL1_Y345]
3. GGDAVYTNGTI [RFX2_Y82_A86T]

[reply]
1. 0.456
2. 0.993
3. 0.488

List the reported phosphorylation enrichment of each sequence below.
1. LRGEDYGFSVD [PRKCI_Y430]
2. GIMEEYQLPYY [BMPR1A_Y453_V450M]
3. FEDALYTVLHR [UNC13D_Y61_YF]
4. TMKSRYMELFD [BBS2_Y644_YF]
5. ELTAKYLNYYQ [P3H4_Y181]

[reply]
1. 0.668
2. 0.795
3. 13.8
4. 0.437
5. 0.642
